Tested on: ethanol-induced gastric ulcers in rats
Assay: ethanol-induced gastric ulcer model in rats (anti-ulcerogenic activity)
Assay type: in vivo, Albino rats
Conditions: 100 µg/kg p.o. + ethanol (1 mL/100 g), versus saline group
The reader will find reported % Inhibition values listed item by item below.
Quick reminder: number only, in %, skip the unit.

| MOLECULAR STRING | ENDPOINT | ASSAY RESULT |
| --- | --- | --- |
| O=C(CSc1nc2ccccc2[nH]1)n1nc(-c2ccccc2)cc1-c1ccccc1O | % Inhibition | 35.4 |
| COc1ccc(-c2cc(-c3ccccc3O)n(C(=O)CSc3nc4ccccc4[nH]3)n2)cc1O | % Inhibition | 29.4 |
| O=C(CSc1nc2ccccc2[nH]1)n1nc(-c2ccccc2)cc1-c1ccccc1 | % Inhibition | 36.2 |
| COc1ccc(-c2cc(-c3ccccc3)nn2C(=O)CSc2nc3ccccc3[nH]2)cc1O | % Inhibition | 24.8 |

# query: % Inhibition of entry `O=C(CSc1nc2ccccc2[nH]1)n1nc(-c2ccccc2O)cc1-c1ccccc1O`
30.2
